# Tested on: 192522-019-R-J2-PDC complex tumor spheroid viability
# Test description: Anticancer human tumor 192522-019-R-J2-PDC patient-derived colon adenocarcinoma cell line growth inhibition [POLQ]
# Test settings: second compound 3.16 µM; first compound 0.001 µM; stronger effect = lower value
Here the recorded viability, T/C is given for each entry.
Quantity name: viability, T/C (%)

INSERT INTO assay_data (compound, experimental_target, value_measured) VALUES
  ('Cn1ncnc1[C@H]1c2n[nH]c(=O)c3cc(F)cc(c23)N[C@@H]1c1ccc(F)cc1 + Cc1cccc(N(C)C(=O)C2C(O)CCN2c2nc(C)cc(C(F)(F)F)c2C#N)c1', '192522-019-R-J2-PDC complex tumor spheroid viability', 106),
  ('CC[C@@]1(O)C(=O)OCc2c1cc1n(c2=O)Cc2cc3c(CN(C)C)c(O)ccc3nc2-1 + Cc1cccc(N(C)C(=O)C2C(O)CCN2c2nc(C)cc(C(F)(F)F)c2C#N)c1', '192522-019-R-J2-PDC complex tumor spheroid viability', 114),
  ('Cn1ncnc1[C@H]1c2n[nH]c(=O)c3cc(F)cc(c23)N[C@@H]1c1ccc(F)cc1 + Nc1ccc(C#CCN(C(=O)Cc2ncc(C(F)(F)F)cc2C(F)(F)F)c2ccc(F)cc2)nn1', '192522-019-R-J2-PDC complex tumor spheroid viability', 107),
  ('CC[C@@]1(O)C(=O)OCc2c1cc1n(c2=O)Cc2cc3c(CN(C)C)c(O)ccc3nc2-1 + Nc1ccc(C#CCN(C(=O)Cc2ncc(C(F)(F)F)cc2C(F)(F)F)c2ccc(F)cc2)nn1', '192522-019-R-J2-PDC complex tumor spheroid viability', 99.9);

----------
# maps each entry to its viability, T/C
# Test system: 192522-019-R-J2-PDC complex tumor spheroid viability
# Test description: Anticancer human tumor 192522-019-R-J2-PDC cell line growth inhibition [POLQ];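 also: spheroids exposed to drugs for seven days before reading; 100% = DMSO vehicle control viability in luminescence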
# Test settings: second compound 0.0316 µM; first compound 0.316 µM; stronger effect = lower value
Quantity name: viability, T/C (%)

INSERT INTO measurements (compound, experimental_target, unit_of_measure, value_measured) VALUES
  ('CC1COCCN1c1cc(-c2ccnn2C)c2ccnc(-c3ccn[nH]3)c2n1 (stereo not given) + COC1C(OC(N)=O)C(O)C(Oc2ccc3c(O)c(NC(=O)c4ccc(O)c(CC=C(C)C)c4)c(=O)oc3c2C)OC1(C)C', '192522-019-R-J2-PDC complex tumor spheroid viability', '%', 45.5),
  ('CCCS(=O)(=O)Nc1ccc(F)c(C(=O)c2c[nH]c3ncc(-c4ccc(Cl)cc4)cc23)c1F + Nc1ccc(C#CCN(C(=O)Cc2ncc(C(F)(F)F)cc2C(F)(F)F)c2ccc(F)cc2)nn1', '192522-019-R-J2-PDC complex tumor spheroid viability', '%', 109),
  ('O=C(Nc1ccc(O)c(NS(=O)(=O)c2ccc(F)cc2)c1)c1ccc(-c2ccccc2)cc1 + COC1C(OC(N)=O)C(O)C(Oc2ccc3c(O)c(NC(=O)c4ccc(O)c(CC=C(C)C)c4)c(=O)oc3c2C)OC1(C)C', '192522-019-R-J2-PDC complex tumor spheroid viability', '%', 95.8),
  ('COc1cccc(OCCCN)c1-c1cc(Nc2cnc(C#N)cn2)n[nH]1 + Nc1ccc(C#CCN(C(=O)Cc2ncc(C(F)(F)F)cc2C(F)(F)F)c2ccc(F)cc2)nn1', '192522-019-R-J2-PDC complex tumor spheroid viability', '%', 40.7),
  ('CC1COCCN1c1cc(-c2ccnn2C)c2ccnc(-c3ccn[nH]3)c2n1 (stereo not given) + Cc1cccc(N(C)C(=O)C2C(O)CCN2c2nc(C)cc(C(F)(F)F)c2C#N)c1', '192522-019-R-J2-PDC complex tumor spheroid viability', '%', 55.6),
  ('COc1ccc([C@@H](O)c2cc(-c3ncnc4cc(N5CCOCC5)ccc34)c(F)cc2Cl)nn1 + Cc1cccc(N(C)C(=O)C2C(O)CCN2c2nc(C)cc(C(F)(F)F)c2C#N)c1', '192522-019-R-J2-PDC complex tumor spheroid viability', '%', 103),
  ('O=c1[nH]cc(F)c(=O)[nH]1 + Cc1cccc(N(C)C(=O)C2C(O)CCN2c2nc(C)cc(C(F)(F)F)c2C#N)c1', '192522-019-R-J2-PDC complex tumor spheroid viability', '%', 76.8),
  ('CC1COCCN1c1cc(C2(O)CC3CCC(C2)O3)c2cnn(-c3ccn[nH]3)c2n1 (stereo not given) + Cc1cccc(N(C)C(=O)C2C(O)CCN2c2nc(C)cc(C(F)(F)F)c2C#N)c1', '192522-019-R-J2-PDC complex tumor spheroid viability', '%', 47.8),
  ('COc1ccc([C@@H](O)c2cc(-c3ncnc4cc(N5CCOCC5)ccc34)c(F)cc2Cl)nn1 + Nc1ccc(C#CCN(C(=O)Cc2ncc(C(F)(F)F)cc2C(F)(F)F)c2ccc(F)cc2)nn1', '192522-019-R-J2-PDC complex tumor spheroid viability', '%', 93.7),
  ('CCCS(=O)(=O)Nc1ccc(F)c(C(=O)c2c[nH]c3ncc(-c4ccc(Cl)cc4)cc23)c1F + Cc1cccc(N(C)C(=O)C2C(O)CCN2c2nc(C)cc(C(F)(F)F)c2C#N)c1', '192522-019-R-J2-PDC complex tumor spheroid viability', '%', 96.8);

----------
# System: 192522-019-R-J2-PDC complex tumor spheroid viability
# Test description: Anticancer human tumor 192522-019-R-J2-PDC cell line growth inhibition [POLQ];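 also: spheroids exposed to drugs for seven days before reading; 100% = DMSO vehicle control viability in luminescence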
# Test settings: second compound 1 µM; first compound 0.0316 µM; stronger effect = lower value
Quantity name: viability, T/C (%)

INSERT INTO assay_data (compound, value_measured) VALUES
  ('COc1cccc(OCCCN)c1-c1cc(Nc2cnc(C#N)cn2)n[nH]1 + Nc1ccc(C#CCN(C(=O)Cc2ncc(C(F)(F)F)cc2C(F)(F)F)c2ccc(F)cc2)nn1', 45.7),
  ('CC(C)n1c(=O)n(C)c2cnc3cc(F)c(-c4ccc(OCCCN5CCCCC5)nc4)cc3c21 + Nc1ccc(C#CCN(C(=O)Cc2ncc(C(F)(F)F)cc2C(F)(F)F)c2ccc(F)cc2)nn1', 104),
  ('C#Cc1c(F)ccc2cc(O)cc(-c3ncc4c(N5CC6CCC(C5)N6)nc(OCC56CCCN5CC(F)C6)nc4c3F)c12 (stereo not given) + Cc1cccc(N(C)C(=O)C2C(O)CCN2c2nc(C)cc(C(F)(F)F)c2C#N)c1', 91.8),
  ('C=CCn1c(=O)c2cnc(Nc3ccc(N4CCN(C)CC4)cc3)nc2n1-c1cccc(C(C)(C)O)n1 + COC1C(OC(N)=O)C(O)C(Oc2ccc3c(O)c(NC(=O)c4ccc(O)c(CC=C(C)C)c4)c(=O)oc3c2C)OC1(C)C', 103),
  ('COc1cc2cc(C(=O)CCC(=O)O)sc2cc1OC + Nc1ccc(C#CCN(C(=O)Cc2ncc(C(F)(F)F)cc2C(F)(F)F)c2ccc(F)cc2)nn1', 102),
  ('Nc1ccn(C2OC(CO)C(O)C2(F)F)c(=O)n1 (stereo not given) + COC1C(OC(N)=O)C(O)C(Oc2ccc3c(O)c(NC(=O)c4ccc(O)c(CC=C(C)C)c4)c(=O)oc3c2C)OC1(C)C', 86.1),
  ('CC1COCCN1c1cc(C2(S(C)(=N)=O)CC2)nc(-c2ccnc3[nH]ccc23)n1 (stereo not given) + COC1C(OC(N)=O)C(O)C(Oc2ccc3c(O)c(NC(=O)c4ccc(O)c(CC=C(C)C)c4)c(=O)oc3c2C)OC1(C)C', 101),
  ('Nc1ccn(C2OC(CO)C(O)C2(F)F)c(=O)n1 (stereo not given) + Cc1cccc(N(C)C(=O)C2C(O)CCN2c2nc(C)cc(C(F)(F)F)c2C#N)c1', 104),
  ('CC1COCCN1c1cc(C2(O)CC3CCC(C2)O3)c2cnn(-c3ccn[nH]3)c2n1 (stereo not given) + Cc1cccc(N(C)C(=O)C2C(O)CCN2c2nc(C)cc(C(F)(F)F)c2C#N)c1', 94.1),
  ('O=C(Nc1ccc(O)c(NS(=O)(=O)c2ccc(F)cc2)c1)c1ccc(-c2ccccc2)cc1 + Nc1ccc(C#CCN(C(=O)Cc2ncc(C(F)(F)F)cc2C(F)(F)F)c2ccc(F)cc2)nn1', 110),
  ('C=CC(=O)N1CCN(c2nc(=O)n(-c3c(C)ccnc3C(C)C)c3nc(-c4c(O)cccc4F)c(F)cc23)C(C)C1 (stereo not given) + Nc1ccc(C#CCN(C(=O)Cc2ncc(C(F)(F)F)cc2C(F)(F)F)c2ccc(F)cc2)nn1', 109),
  ('COc1ccc([C@@H](O)c2cc(-c3ncnc4cc(N5CCOCC5)ccc34)c(F)cc2Cl)nn1 + Nc1ccc(C#CCN(C(=O)Cc2ncc(C(F)(F)F)cc2C(F)(F)F)c2ccc(F)cc2)nn1', 102),
  ('O=c1[nH]cc(F)c(=O)[nH]1 + Cc1cccc(N(C)C(=O)C2C(O)CCN2c2nc(C)cc(C(F)(F)F)c2C#N)c1', 96.8),
  ('COc1cc2cc(C(=O)CCC(=O)O)sc2cc1OC + Cc1cccc(N(C)C(=O)C2C(O)CCN2c2nc(C)cc(C(F)(F)F)c2C#N)c1', 101),
  ('O=C(c1cc(Cc2n[nH]c(=O)c3ccccc23)ccc1F)N1CCN(C(=O)C2CC2)CC1 + Cc1cccc(N(C)C(=O)C2C(O)CCN2c2nc(C)cc(C(F)(F)F)c2C#N)c1', 96.1),
  ('CCc1cc2c(N3CCc4c(cc(Cn5ccnc5)cc4-c4cn(C)nc4C(F)(F)F)C3=O)ccnc2c(OC)n1 + COC1C(OC(N)=O)C(O)C(Oc2ccc3c(O)c(NC(=O)c4ccc(O)c(CC=C(C)C)c4)c(=O)oc3c2C)OC1(C)C', 101),
  ('COc1cc(C2c3cc4c(cc3C(OC3OC5COC(C)OC5C(O)C3O)C3COC(=O)C23)OCO4)cc(OC)c1O (stereo not given) + COC1C(OC(N)=O)C(O)C(Oc2ccc3c(O)c(NC(=O)c4ccc(O)c(CC=C(C)C)c4)c(=O)oc3c2C)OC1(C)C', 106),
  ('CC[C@@]1(O)C(=O)OCc2c1cc1n(c2=O)Cc2cc3c(CN(C)C)c(O)ccc3nc2-1 + Nc1ccc(C#CCN(C(=O)Cc2ncc(C(F)(F)F)cc2C(F)(F)F)c2ccc(F)cc2)nn1', 97.8),
  ('COc1cc2cc(C(=O)CCC(=O)O)sc2cc1OC + COC1C(OC(N)=O)C(O)C(Oc2ccc3c(O)c(NC(=O)c4ccc(O)c(CC=C(C)C)c4)c(=O)oc3c2C)OC1(C)C', 105),
  ('CCc1cc2c(N3CCc4c(cc(Cn5ccnc5)cc4-c4cn(C)nc4C(F)(F)F)C3=O)cc(C)nc2c(OC)n1 + Cc1cccc(N(C)C(=O)C2C(O)CCN2c2nc(C)cc(C(F)(F)F)c2C#N)c1', 102);

Each recorded value in this set is attributed to PubChem BioAssay AID1963850.
